The measured values listed here are drawn from the supplement of paper PMC10627819.

# Test system: B. subtilis 168
# Test: fitness (endpoint OD595 vs no drug) (fraction); higher = more growth
# Measurement Conditions: first compound 0.125 µg/mL; partner 0.125 µg/mL
Attribute Measured: fitness
One number for each entry.

Some compounds with known fitness results, for comparison:
1. CCC[C@@H]1C[C@@H](C(=O)N[C@@H]([C@H]2O[C@H](SC)[C@H](O)[C@@H](O)[C@H]2O)[C@H](C)Cl)N(C)C1 [Clindamycin] + C[C@H]1COc2c(N3CCN(C)CC3)c(F)cc3c(=O)c(C(=O)O)cn1c23 [Levofloxacin] ... 0.0468
2. N[C@@H]1CONC1=O [Cycloserine D] + CC1=C(C(=O)O)N2C(=O)[C@@H](NC(=O)[C@H](N)c3ccccc3)[C@H]2SC1 [Cephalexin] ... 0.865
3. N[C@@H]1CONC1=O [Cycloserine D] + COc1cc(Cc2cnc(N)nc2N)cc(OC)c1OC [Trimethoprim] ... 0.635
4. N[C@@H]1CONC1=O [Cycloserine D] + COc1c(N2C[C@@H]3CCCN[C@@H]3C2)c(F)cc2c(=O)c(C(=O)O)cn(C3CC3)c12 [Moxifloxacin] ... 0.0229
5. CCC[C@@H]1C[C@@H](C(=O)N[C@@H]([C@H]2O[C@H](SC)[C@H](O)[C@@H](O)[C@H]2O)[C@H](C)Cl)N(C)C1 [Clindamycin] + CC(=O)NC[C@H]1CN(c2ccc(N3CCOCC3)c(F)c2)C(=O)O1 [Linezolid] ... 0.502

Return reported fitness values for all items listed beneath this line.
1. COc1c(N2C[C@@H]3CCCN[C@@H]3C2)c(F)cc2c(=O)c(C(=O)O)cn(C3CC3)c12 [Moxifloxacin] + CC1=C\[C@@H](O)CC(=O)Cc2nc(co2)C(=O)N2CCC=C2C(=O)O[C@H](C(C)C)[C@H](C)/C=C/C(=O)NC\C=C\1 [Virginiamycin M1]
2. CCC[C@@H]1C[C@@H](C(=O)N[C@@H]([C@H]2O[C@H](SC)[C@H](O)[C@@H](O)[C@H]2O)[C@H](C)Cl)N(C)C1 [Clindamycin] + COc1c(N2C[C@@H]3CCCN[C@@H]3C2)c(F)cc2c(=O)c(C(=O)O)cn(C3CC3)c12 [Moxifloxacin]

Response:
0.0517
0.0534

----------
# System: B. subtilis 168
# Test: Bliss interaction score (quartile over a dose matrix) (fitness difference); higher = more antagonism (negative = synergy)
Attribute Measured: Bliss interaction score
One number for each entry.

Check out these entries, answers already filled in.
1. O=C1CN(/N=C/c2ccc([N+](=O)[O-])o2)C(=O)N1 [Nitrofurantoin] + CC1=C\[C@@H](O)CC(=O)Cc2nc(co2)C(=O)N2CCC=C2C(=O)O[C@H](C(C)C)[C@H](C)/C=C/C(=O)NC\C=C\1 [Virginiamycin M1] ... 0.129
2. O=C(O[C@@H]1Cc2c(O)cc(O)cc2O[C@@H]1c1cc(O)c(O)c(O)c1)c1cc(O)c(O)c(O)c1 [EGCG] + CO[C@@H]1[C@@H](OC(N)=O)[C@@H](O)[C@H](Oc2ccc3c(O)c(NC(=O)c4ccc(O)c(CC=C(C)C)c4)c(=O)oc3c2C)OC1(C)C [Novobiocin] ... -0.0765
3. CC[C@H]1OC(=O)[C@H](C)[C@@H](O[C@H]2C[C@@](C)(OC)[C@@H](O)[C@H](C)O2)[C@H](C)[C@@H](O[C@@H]2O[C@H](C)C[C@H](N(C)C)[C@H]2O)[C@](C)(OC)C[C@@H](C)C(=O)[C@H](C)[C@@H](O)[C@]1(C)O [Clarithromycin] + CC[C@H]1OC(=O)[C@H](C)[C@@H](O[C@H]2C[C@@](C)(OC)[C@@H](O)[C@H](C)O2)[C@H](C)[C@@H](O[C@@H]2O[C@H](C)C[C@H](N(C)C)[C@H]2O)[C@](C)(O)C[C@@H](C)C(=O)[C@H](C)[C@@H](O)[C@]1(C)O [Erythromycin] ... -0.0372
4. CC(=O)OC[C@H]1O[C@@H]([S-])[C@H](OC(C)=O)[C@@H](OC(C)=O)[C@@H]1OC(C)=O.CCP(CC)CC.[Au+] [Auranofin] + Oc1cc(Cl)ccc1Oc1ccc(Cl)cc1Cl [Triclosan] ... -0.0277

Please supply Bliss interaction score for each of the following items, keeping them in order.
1. CCC[C@@H]1C[C@@H](C(=O)N[C@@H]([C@H]2O[C@H](SC)[C@H](O)[C@@H](O)[C@H]2O)[C@H](C)Cl)N(C)C1 [Clindamycin] + CCN(CC)CCOC(=O)c1ccc(N)cc1 [Procaine]
2. COc1cc(Cc2cnc(N)nc2N)cc(OC)c1OC [Trimethoprim] + CC1=C\[C@@H](O)CC(=O)Cc2nc(co2)C(=O)N2CCC=C2C(=O)O[C@H](C(C)C)[C@H](C)/C=C/C(=O)NC\C=C\1
3. CC(=O)OC[C@H]1O[C@@H]([S-])[C@H](OC(C)=O)[C@@H](OC(C)=O)[C@@H]1OC(C)=O.CCP(CC)CC.[Au+] [Auranofin] + CCC[C@@H]1C[C@@H](C(=O)N[C@@H]([C@H]2O[C@H](SC)[C@H](O)[C@@H](O)[C@H]2O)[C@H](C)Cl)N(C)C1 [Clindamycin]

Response:
1: -0.067; 2: 0.0852; 3: 0.0424

----------
I'd appreciate it if you could supply Bliss interaction score values for the items below.
# Test system: S. pneumoniae D39V
# Test: Bliss interaction score (quartile over a dose matrix) (fitness difference); higher = more antagonism (negative = synergy)
Numbers only.

Known results for compounds:
1. O=C(O[C@@H]1Cc2c(O)cc(O)cc2O[C@@H]1c1cc(O)c(O)c(O)c1)c1cc(O)c(O)c(O)c1 [EGCG] + CO[C@@]12[C@H](COC(N)=O)C3=C(C(=O)C(C)=C(N)C3=O)N1C[C@@H]1N[C@@H]12 [MitomycinC] ... 0.0987
2. CC(=O)OC[C@H]1O[C@@H]([S-])[C@H](OC(C)=O)[C@@H](OC(C)=O)[C@@H]1OC(C)=O.CCP(CC)CC.[Au+] [Auranofin] + CN[C@H](CC(C)C)C(=O)N[C@H]1C(=O)N[C@@H](CC(N)=O)C(=O)N[C@H]2C(=O)N[C@H]3C(=O)N[C@H](C(=O)N[C@H](C(=O)O)c4cc(O)cc(O)c4-c4cc3ccc4O)[C@H](O)c3ccc(c(Cl)c3)Oc3cc2cc(c3O[C@@H]2O[C@H](CO)[C@@H](O)[C@H](O)[C@H]2O[C@H]2C[C@](C)(N)[C@H](O)[C@H](C)O2)Oc2ccc(cc2Cl)[C@H]1O [Vancomycin] ... 0.0929
3. O=C1CN(/N=C/c2ccc([N+](=O)[O-])o2)C(=O)N1 [Nitrofurantoin] + Cc1cc(NS(=O)(=O)c2ccc(N)cc2)no1 [Sulfamethoxazol] ... 0.049

Could you tell me Bliss interaction score for each of these compounds? They are listed below.
1. O=C(N[C@H](CO)[C@H](O)c1ccc([N+](=O)[O-])cc1)C(Cl)Cl [Chloramphenicol] + CN(C)C(=O)C(CCN1CCC(O)(c2ccc(Cl)cc2)CC1)(c1ccccc1)c1ccccc1 [Loperamide]
2. O=C(N[C@H](CO)[C@H](O)c1ccc([N+](=O)[O-])cc1)C(Cl)Cl [Chloramphenicol] + COc1ccc(C[C@H](N)C(=O)N[C@H]2[C@@H](O)[C@H](n3cnc4c(N(C)C)ncnc43)O[C@@H]2CO)cc1 [Puromycin]

Response:
1: 0.146; 2: -0.0967

----------
# System: S. aureus DSM 20231
# Test: Bliss interaction score (quartile over a dose matrix) (fitness difference); higher = more antagonism (negative = synergy)
Attribute Measured: Bliss interaction score
Answers are plain numbers.

// worked examples, Bliss interaction score included
1) C/C(=C\C(=O)OCCCCCCCCC(=O)O)C[C@@H]1OC[C@H](C[C@@H]2O[C@H]2[C@@H](C)[C@H](C)O)[C@@H](O)[C@H]1O [Pseudomonic acid] + CN[C@H](CC(C)C)C(=O)N[C@H]1C(=O)N[C@@H](CC(N)=O)C(=O)N[C@H]2C(=O)N[C@H]3C(=O)N[C@H](C(=O)N[C@H](C(=O)O)c4cc(O)cc(O)c4-c4cc3ccc4O)[C@H](O)c3ccc(c(Cl)c3)Oc3cc2cc(c3O[C@@H]2O[C@H](CO)[C@@H](O)[C@H](O)[C@H]2O[C@H]2C[C@](C)(N)[C@H](O)[C@H](C)O2)Oc2ccc(cc2Cl)[C@H]1O [Vancomycin] ... -0.0086
2) CCC[C@@H]1C[C@@H](C(=O)N[C@@H]([C@H]2O[C@H](SC)[C@H](O)[C@@H](O)[C@H]2O)[C@H](C)Cl)N(C)C1 [Clindamycin] + CC(C)Cc1ccc(C(C)C(=O)O)cc1 [Ibuprofen] ... -0.231

Query: What Bliss interaction score value was documented for this compound, CC(=O)OC[C@H]1O[C@@H]([S-])[C@H](OC(C)=O)[C@@H](OC(C)=O)[C@@H]1OC(C)=O.CCP(CC)CC.[Au+] [Auranofin] + COc1ccc(C[C@H](N)C(=O)N[C@H]2[C@@H](O)[C@H](n3cnc4c(N(C)C)ncnc43)O[C@@H]2CO)cc1 [Puromycin] ?
Response: -0.0538
